Where do the numbers come from? From paper PMC7819943.

Field: binding signal. Provide a value for each of the sequences that follow.
- Tested On: OsWRKY34 (Oryza sativa, UniProt Q0JBA9 1-250)
- Sequence (Q0JBA9 entry or part of it): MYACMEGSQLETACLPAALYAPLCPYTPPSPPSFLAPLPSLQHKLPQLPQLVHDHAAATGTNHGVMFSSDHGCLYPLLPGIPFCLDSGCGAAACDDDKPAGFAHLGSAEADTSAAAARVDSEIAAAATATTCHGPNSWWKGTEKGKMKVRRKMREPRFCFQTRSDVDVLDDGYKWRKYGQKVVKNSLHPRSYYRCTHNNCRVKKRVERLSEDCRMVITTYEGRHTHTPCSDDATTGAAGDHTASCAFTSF
- Measurement Notes: protein-binding microarray (RPBM); PBS, 2% BSA, 51.3 ng/ul salmon testes DNA, 50 uM zinc acetate, 200 nM TF, 25 C, 1 h; high values mean tight binding
- Assay Conditions: protein: recombinant; tags: N-terminal polyhistidine and DsRed monomer fusion (pET32a); label: CyDye5-dUTP incorporated in the synthesized complementary strand; 3' TTTTT single-stranded linker to array surface; dsDNA, one strand shown
Over roughly 68,000 sequences, “fluorescence intensity (a.u.)” has its median near 9,100; the highest 2% begin near 16,000. What follows is part of a selection rich in the highest values, with near analogues and random picks from the rest.

Known binding signal results, listed for orientation:
CTTGCGGTTCATTTGGGGTTGGTTGGTTCTAGGGTACTGTCGGAGTCACCTAGTGCAG	16700 fluorescence intensity (a.u.)
TAGCTCATTCATGCCTCCATCGGTTGACTTTTTTTTTCTACGGAGTCACCTAGTGCAG	20500 fluorescence intensity (a.u.)
TCCTGTGTTTTTTCTGTGTTTTGCAATCCTCTGTTTTACACGGAGTCACCTAGTGCAG	10900 fluorescence intensity (a.u.)
TATTGTATTGGGTTGGGCCTTTGTGGTTGTCTAATGAAGTCGGAGTCACCTAGTGCAG	22300 fluorescence intensity (a.u.)
CACGATGATTGTTGCTGCACCATAGTCTCCATGTGTGTACCGGAGTCACCTAGTGCAG	8410 fluorescence intensity (a.u.)

Parameters: items (list). Returns: binding signal for each item.
1. CCCAGTTTTATTTCTGCAGTTCATTTTATGAGAGCATTCTCGGAGTCACCTAGTGCAG
2. GGACATTTGGAACTGATTACTCCTACTACTCTAGTGAAAACGGAGTCACCTAGTGCAG

["8120 fluorescence intensity (a.u.)", "8400 fluorescence intensity (a.u.)"]

----------
Hi there, I'd appreciate the recorded binding signal for every entry that follows.
- Tested On: OsWRKY34 (Oryza sativa, UniProt Q0JBA9 1-250)
- Measurement Notes: protein-binding microarray (RPBM); PBS, 2% BSA, 51.3 ng/ul salmon testes DNA, 50 uM zinc acetate, 200 nM TF, 25 C, 1 h; high values mean tight binding
- Assay Conditions: protein: recombinant; tags: N-terminal polyhistidine and DsRed monomer fusion (pET32a); label: CyDye5-dUTP incorporated in the synthesized complementary strand; 3' TTTTT single-stranded linker to array surface; dsDNA, one strand shown
Over roughly 68,000 sequences, “fluorescence intensity (a.u.)” has its median near 9,100; the highest 2% begin near 16,000. The list comes from a sample in which the highest values are over-represented; it also holds close analogues and randomly drawn sequences.

TTCACCCCGCTGCTCCGACGTCCTAGCCATCGCCGCCGCCCGGAGTCACCTAGTGCAG	8600 fluorescence intensity (a.u.)
GTTGACTTTTTAGCACGTGTTTGACCGTTCGTCTTATTAACGGAGTCACCTAGTGCAG	9780 fluorescence intensity (a.u.)
CACCGTTGATTTTTTAGCACATGTTTGACCGTTCGTCTTACGGAGTCACCTAGTGCAG	12900 fluorescence intensity (a.u.)
GGGTTTTTTTTTTTTTTGCTGCTTTGCTTAGCACTTTTTTCGGAGTCACCTAGTGCAG	8340 fluorescence intensity (a.u.)

Please turn your attention to the following entry.
# query: binding signal of entry `CTGATTCGAACGCAGCCATAGTCACTCTTTCACTCTCACTCGGAGTCACCTAGTGCAG`
11000 fluorescence intensity (a.u.)

----------
- Tested On: OsWRKY34 (Oryza sativa, UniProt Q0JBA9 1-250)
- Measurement Notes: protein-binding microarray (RPBM); PBS, 2% BSA, 51.3 ng/ul salmon testes DNA, 50 uM zinc acetate, 200 nM TF, 25 C, 1 h; high values mean tight binding
- Assay Conditions: protein: recombinant; tags: N-terminal polyhistidine and DsRed monomer fusion (pET32a); label: CyDye5-dUTP incorporated in the synthesized complementary strand; 3' TTTTT single-stranded linker to array surface; dsDNA, one strand shown
The full ranking holds about 68,000 sequences; the median of “fluorescence intensity (a.u.)” is about 9,100, and the highest 2% start at about 16,000. Only a selection was taken, and the highest values are over-represented in it overall.
Record form. Attribute: binding signal. Fill in for each entry.

CGTTTTTGTGTCTTTCATTTGAGGAGGAACTGCGATTCTTCGGAGTCACCTAGTGCAG	9400 fluorescence intensity (a.u.)
CCAGAACGGCCGGTCAACGGCACCGTTGACCGTATGAGGGCGGAGTCACCTAGTGCAG	52400 fluorescence intensity (a.u.)
GGGTTGGTTCCTGCCTCTCGAGTCTCAGCAAGTGTGTCACCGGAGTCACCTAGTGCAG	11500 fluorescence intensity (a.u.)
TATTTAACACCGTTGACTTTTTAGCACATGTTTGACCGTTCGGAGTCACCTAGTGCAG	38200 fluorescence intensity (a.u.)
GCCTGCGCCGATCCCCATCCATTCCGCGAGCGAGCGAGTGCGGAGTCACCTAGTGCAG	8160 fluorescence intensity (a.u.)

Batch of 7 sequences: report binding signal for each.
1. AGGTGGTTGGTGAGGTTTGCTTTGCACGATCGAGTGAGGACGGAGTCACCTAGTGCAG
2. GTTTGTTGCAGTTTGGTGTGTATGTTTGTTGCACTTTGATCGGAGTCACCTAGTGCAG
3. GCGTTGAGGGCAGGCGGCGGCGCTTGGTGGCGGTGGGGCACGGAGTCACCTAGTGCAG
4. CGTCTCCTCTCTCTCTCTCTCTCTCTCTCGCCTCCGCTTCCGGAGTCACCTAGTGCAG
5. GGCTCAACAAATAATGTGAAGATCTCTCATTTTCATTTTCCGGAGTCACCTAGTGCAG
6. GGACCATCTCCGCCGCCGCCGCTGCCATCACTTCGTCCTCCGGAGTCACCTAGTGCAG
7. AACGGTCAAACATGTGCTAAAAAGTCAACGGTGTCAAATACGGAGTCACCTAGTGCAG

10500 fluorescence intensity (a.u.)
9920 fluorescence intensity (a.u.)
8370 fluorescence intensity (a.u.)
8240 fluorescence intensity (a.u.)
8050 fluorescence intensity (a.u.)
17600 fluorescence intensity (a.u.)
18600 fluorescence intensity (a.u.)

Go through the items and report each one's binding signal.
1. GAACCTGTCTACATCGGCCGTGTCTCGTGCACTTGCTCTCCGGAGTCACCTAGTGCAG
2. GGTGCTCCGCCTCCCGGGGCAGGGTTTCAAGAGGGTGGGTCGGAGTCACCTAGTGCAG
3. CACCGTGTCGCTCTCTCTCGTCGTCTCCGCCTCCGGCTTCCGGAGTCACCTAGTGCAG
4. ACCCTAGCCACCCCGCGTCGCCCGCCTCGGCGCGCCCAAACGGAGTCACCTAGTGCAG
5. GTTGGGGAGCGGGGTGTGTGTGCCAGGCGCTCGGGCGGGGCGGAGTCACCTAGTGCAG
6. GTGTCTTGTGCGTTTGCTCTCTCGCGAACCATTCCACAGACGGAGTCACCTAGTGCAG

1. 10700 fluorescence intensity (a.u.)
2. 10700 fluorescence intensity (a.u.)
3. 19600 fluorescence intensity (a.u.)
4. 9260 fluorescence intensity (a.u.)
5. 19500 fluorescence intensity (a.u.)
6. 8380 fluorescence intensity (a.u.)

I have 4 sequences here; please give me binding signal for each one.
1. GGGGTGGCGGCGGCGGCTGCGCGCGGGCGGTGGCGCGGGGCGGAGTCACCTAGTGCAG
2. TCACGGCCCCGCCGACCTCACGTCACCTTTTGTTGCGAGTCGGAGTCACCTAGTGCAG
3. TATTTGTCATTCGCTGTCTATGACATATGAGCCCTCATGTCGGAGTCACCTAGTGCAG
4. TTGATTTTTTTAGCACATGTTTGACCGTTCGTCTTATTAACGGAGTCACCTAGTGCAG

1: 12000 fluorescence intensity (a.u.); 2: 8110 fluorescence intensity (a.u.); 3: 8280 fluorescence intensity (a.u.); 4: 13200 fluorescence intensity (a.u.)

----------
Record form. Attribute: binding signal. Fill in for each entry.
- Tested On: OsWRKY34 (Oryza sativa, UniProt Q0JBA9 1-250)
- Measurement Notes: protein-binding microarray (RPBM); PBS, 2% BSA, 51.3 ng/ul salmon testes DNA, 50 uM zinc acetate, 200 nM TF, 25 C, 1 h; high values mean tight binding
- Assay Conditions: protein: recombinant; tags: N-terminal polyhistidine and DsRed monomer fusion (pET32a); label: CyDye5-dUTP incorporated in the synthesized complementary strand; 3' TTTTT single-stranded linker to array surface; dsDNA, one strand shown
Over roughly 68,000 sequences, “fluorescence intensity (a.u.)” has its median near 9,100; the highest 2% begin near 16,000. Only a selection was taken, and the highest values are over-represented in it overall.

For each of the items listed, what is its binding signal?
1. CTTCCTTCCTAACGTATCGCCCACATTCCTCCACGTCTCCCGGAGTCACCTAGTGCAG
2. CCACTTTAGATCCCAAATTATATATGGTCGAGTTCTTTTCCGGAGTCACCTAGTGCAG
3. CTATGAAGTTAAAAATACGCTCATCAGAAAGGATATATTTCGGAGTCACCTAGTGCAG
4. AATCATCACATCATCACCGTCATCTTCTCTAGCATAGCAACGGAGTCACCTAGTGCAG

8980 fluorescence intensity (a.u.)
9470 fluorescence intensity (a.u.)
57200 fluorescence intensity (a.u.)
8050 fluorescence intensity (a.u.)

Record binding signal per entry; entries follow.
1. TCTTGTGTACGTTGTGTGTTGTCATTGTGTGTCTGTCTTACGGAGTCACCTAGTGCAG
2. GTCGCCGCCTCCTCCTCTCCATCTCCGCTGCTATTATTGCCGGAGTCACCTAGTGCAG
3. ATAATAATATTTTTCACCTATGCCATACTTCTTTTGTCAACGGAGTCACCTAGTGCAG
4. CTTTGTTGTTTTCTTCTGTTAGTGTCTGTATTATTCATTACGGAGTCACCTAGTGCAG
5. AATGGATATCAGGATATGAAGCTCAAAGTTATCGGTTATTCGGAGTCACCTAGTGCAG
6. TTCACGTGTGTTTTGTGTAGTTTTCTACCAGTTTGTTGAACGGAGTCACCTAGTGCAG
7. TTTTTAGGGTGTGGGTATTAGTTGGAAAATACAATAAATGCGGAGTCACCTAGTGCAG

17200 fluorescence intensity (a.u.)
12900 fluorescence intensity (a.u.)
8040 fluorescence intensity (a.u.)
9880 fluorescence intensity (a.u.)
8240 fluorescence intensity (a.u.)
8470 fluorescence intensity (a.u.)
9530 fluorescence intensity (a.u.)

Please give binding signal for each item listed below.
1. AACCCTCGCTTTCTTTGATAATCATTCCTAACTGCCTGGTCGGAGTCACCTAGTGCAG
2. CCATTAGTAAGTTCTCTCGTGGCCCAATACTCTCTTGATGCGGAGTCACCTAGTGCAG
3. CCACCACCACCACGCCACGGCAGCCGCACCGCACCGCACCCGGAGTCACCTAGTGCAG
4. ATAGTTGTTTTGCCTACCCCACCCATGCCGAAGATGGACACGGAGTCACCTAGTGCAG

1: 8170 fluorescence intensity (a.u.); 2: 8840 fluorescence intensity (a.u.); 3: 8390 fluorescence intensity (a.u.); 4: 8790 fluorescence intensity (a.u.)
